# TEST_SYSTEM: recombinant eIF4E (Homo sapiens (Human))
# Sequence (P06730 whole entry): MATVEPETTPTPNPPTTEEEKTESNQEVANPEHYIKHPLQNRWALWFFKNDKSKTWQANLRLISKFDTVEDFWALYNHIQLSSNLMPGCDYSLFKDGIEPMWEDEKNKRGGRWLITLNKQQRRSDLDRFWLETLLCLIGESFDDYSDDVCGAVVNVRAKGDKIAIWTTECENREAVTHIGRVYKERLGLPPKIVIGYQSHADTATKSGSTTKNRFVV
# ASSAY_NOTES: Fluorescence polarization competition assay for eIF4E binding potency
# REPORTED_CONDITIONS: inhibition of eIF4E/EDA-m7GDP-ATTO-550 binding by 50%; Table 4B calculated values; read-out: IC50
# note: exactly 0.02 µM is not below, so it is rule not met; use rule met for IC50 strictly under it

>>> class("Cc1nc2cc(C(F)(F)F)c(OCCN3CCNCC3)c(C#N)c2c(=O)n1CCOc1ccc(Cl)cc1-c1ccnc2ccsc12")
"rule not met"
>>> class("Cc1ccc(F)c(-c2c(C(F)(F)F)cc3nc(C)n(CCOc4ccc(Cl)cc4-c4cc(C)nc5c(C(=O)O)csc45)c(=O)c3c2C#N)n1")
"rule met"
>>> class("Cc1nc2cc(CN(C)C)c(F)c(C#N)c2c(=O)n1CCOc1ccc(Cl)cc1-c1ccnc2c(C(=O)O)csc12")
"rule not met"
>>> class("Cc1nc2cc(C(F)F)c(CN(C)C)c(C#N)c2c(=O)n1CC#Cc1ccc(Cl)cc1-c1ccnc2c(C(=O)O)csc12")
"rule not met"
>>> class("Cc1cc(-c2cc(Cl)ccc2OCCn2c(C)nc3cc(C(F)(F)F)c(-c4ccnc(C)n4)nc3c2=O)c2scc(C(=O)O)c2n1")
"rule not met"
>>> class("Cc1nc2cnc(N(C)C3CCN([C@H]4C[C@@H](OC(F)(F)F)C4)CC3)c(C#N)c2c(=O)n1CC#Cc1ccc(Cl)cc1-c1ccnc2c(C(=O)O)csc12 [1173a]")
"rule met"
